Target: IKZF2 (Homo sapiens (Human), UniProt Q96SW2+Q9UKS7)
Sequence (Q9UKS7 whole entry): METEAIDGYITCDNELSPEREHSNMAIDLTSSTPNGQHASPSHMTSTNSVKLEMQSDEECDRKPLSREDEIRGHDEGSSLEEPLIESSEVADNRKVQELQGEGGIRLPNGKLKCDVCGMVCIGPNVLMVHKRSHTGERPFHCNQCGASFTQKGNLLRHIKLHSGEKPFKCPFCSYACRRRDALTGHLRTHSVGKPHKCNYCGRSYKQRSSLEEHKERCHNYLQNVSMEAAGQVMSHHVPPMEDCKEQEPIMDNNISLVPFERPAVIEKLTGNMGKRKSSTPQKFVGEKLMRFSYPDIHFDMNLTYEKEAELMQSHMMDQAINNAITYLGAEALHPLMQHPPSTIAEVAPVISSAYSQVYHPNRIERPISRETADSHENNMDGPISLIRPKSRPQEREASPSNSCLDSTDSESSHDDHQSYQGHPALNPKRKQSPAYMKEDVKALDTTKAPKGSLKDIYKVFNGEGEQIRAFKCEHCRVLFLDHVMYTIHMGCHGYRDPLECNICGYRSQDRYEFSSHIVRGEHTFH
Sequence (Q96SW2 whole entry): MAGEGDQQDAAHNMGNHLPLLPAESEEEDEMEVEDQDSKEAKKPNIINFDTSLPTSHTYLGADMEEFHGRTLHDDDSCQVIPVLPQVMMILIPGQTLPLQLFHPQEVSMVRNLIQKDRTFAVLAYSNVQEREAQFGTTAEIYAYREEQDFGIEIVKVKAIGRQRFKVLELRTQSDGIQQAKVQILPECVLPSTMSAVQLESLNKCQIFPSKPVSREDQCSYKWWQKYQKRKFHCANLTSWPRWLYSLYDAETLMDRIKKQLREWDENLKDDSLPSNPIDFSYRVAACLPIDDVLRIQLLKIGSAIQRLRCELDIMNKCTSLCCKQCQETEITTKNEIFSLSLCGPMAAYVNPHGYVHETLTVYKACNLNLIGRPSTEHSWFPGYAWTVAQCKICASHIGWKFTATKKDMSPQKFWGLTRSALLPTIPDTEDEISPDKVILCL
Sequence (Q16531 whole entry partner): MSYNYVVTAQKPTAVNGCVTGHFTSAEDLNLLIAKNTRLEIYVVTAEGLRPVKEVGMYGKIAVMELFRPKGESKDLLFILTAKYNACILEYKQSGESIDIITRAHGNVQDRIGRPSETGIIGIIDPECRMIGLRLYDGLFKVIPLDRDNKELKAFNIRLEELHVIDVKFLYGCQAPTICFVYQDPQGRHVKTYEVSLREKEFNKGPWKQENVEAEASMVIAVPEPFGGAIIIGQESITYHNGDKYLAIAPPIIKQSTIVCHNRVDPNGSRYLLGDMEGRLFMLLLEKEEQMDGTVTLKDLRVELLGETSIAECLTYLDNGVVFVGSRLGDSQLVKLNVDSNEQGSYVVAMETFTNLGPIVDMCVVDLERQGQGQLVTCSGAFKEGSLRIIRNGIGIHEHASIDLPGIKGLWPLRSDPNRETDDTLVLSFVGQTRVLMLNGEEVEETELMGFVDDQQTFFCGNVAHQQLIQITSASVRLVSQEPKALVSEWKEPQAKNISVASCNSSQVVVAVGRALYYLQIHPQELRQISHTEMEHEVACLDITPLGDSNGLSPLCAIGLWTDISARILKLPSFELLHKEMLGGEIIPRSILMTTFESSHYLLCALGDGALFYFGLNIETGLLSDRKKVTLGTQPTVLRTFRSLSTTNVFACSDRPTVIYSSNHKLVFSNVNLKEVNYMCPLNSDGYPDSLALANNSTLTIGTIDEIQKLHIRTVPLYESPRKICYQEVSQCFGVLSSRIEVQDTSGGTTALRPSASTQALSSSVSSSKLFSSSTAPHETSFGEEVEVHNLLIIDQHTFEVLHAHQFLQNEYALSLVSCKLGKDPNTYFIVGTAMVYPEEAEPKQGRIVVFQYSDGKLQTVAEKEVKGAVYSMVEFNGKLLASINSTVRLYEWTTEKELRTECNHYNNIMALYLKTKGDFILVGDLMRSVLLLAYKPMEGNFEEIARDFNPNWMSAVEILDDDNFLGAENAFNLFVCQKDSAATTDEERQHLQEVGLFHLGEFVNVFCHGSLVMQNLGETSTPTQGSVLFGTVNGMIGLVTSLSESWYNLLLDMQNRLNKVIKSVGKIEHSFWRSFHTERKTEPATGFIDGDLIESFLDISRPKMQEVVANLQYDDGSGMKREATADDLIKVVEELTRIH
Assay: IKZF2 HiBiT Assay (Jurkat-IKZF2-HiBiT cell line)
Assay type: cell-based
Conditions: Jurkat-IKZF2-HiBiT cells, 24 hours; read-out: HiBit assay degradation analysis DC50
measured_endpoint: DC50

| compound | val |
| --- | --- |
| O=C1CC[C@H](N2Cc3c(ccc4c3OCC43CCN(Cc4cccc(-c5cnn(C(F)F)c5)c4)CC3)C2=O)C(=O)N1 | < 0.05 µM |
| O=C1CCC(N2Cc3c(ccc4c3OCC43CCN(Cc4ccc5oc(=O)[nH]c5c4)CC3)C2=O)C(=O)N1 (stereo not shown) | 0.05 to 0.2 µM |
| O=C1CCC(N2Cc3c(ccc4c3OCC43CCN(Cc4cnn5c4CCC5)CC3)C2=O)C(=O)N1 (stereo not shown) | 0.2 to 0.5 µM |
| O=C1CCC(N2Cc3c(ccc4c3OCC43CCN(Cc4cnn(CC5COC5)c4)CC3)C2=O)C(=O)N1 (stereo not shown) | > 0.5 µM |
| O=C1CCC(N2Cc3c(ccc4c3OCC43CCN(Cc4cccc5ccoc45)CC3)C2=O)C(=O)N1 (stereo not shown) | 0.05 to 0.2 µM |
| CC1(C)Cc2c(CN3CCC4(CC3)COc3c4ccc4c3CN(C3CCC(=O)NC3=O)C4=O)cccc2O1 (stereo not shown) | > 0.5 µM |
| O=C1CCC(N2Cc3c(ccc4c3OCC43CCN(Cc4cccc5c4NC(=O)C5)CC3)C2=O)C(=O)N1 (stereo not shown) | 0.05 to 0.2 µM |
| Cc1cccc(CN2CCC3(CC2)COc2c3ccc3c2CN(C2CCC(=O)NC2=O)C3=O)c1 (stereo not shown) | < 0.05 µM |
| O=C1CCC(N2Cc3c(ccc4c3OCC43CCN(Cc4cccc(-c5cn[nH]c5)c4)CC3)C2=O)C(=O)N1 (stereo not shown) | < 0.05 µM |
| Cc1ccc(CN2CCC3(CCOc4c3ccc3c4CN(C4CCC(=O)NC4=O)C3=O)CC2)cc1 (stereo not shown) | > 0.5 µM |
| O=C1CCC(N2Cc3c(ccc4c3OCC43CCN(Cc4cccc(Cn5cccn5)c4)CC3)C2=O)C(=O)N1 (stereo not shown) | 0.2 to 0.5 µM |
| O=C1CCC(N2Cc3c(ccc4c3OCC43CCN(Cc4ccc(OCc5ccccc5)cn4)CC3)C2=O)C(=O)N1 (stereo not shown) | > 0.5 µM |
| O=C1CCC(N2Cc3c(ccc4c3OCC43CCN(Cc4ccc(Cl)c5ccccc45)CC3)C2=O)C(=O)N1 (stereo not shown) | > 0.5 µM |
| O=C1CC[C@H](N2Cc3c(ccc4c3OCC43CCN(Cc4cccc(-c5cnn(C6COC6)c5)c4)CC3)C2=O)C(=O)N1 | < 0.05 µM |
| Cn1nc(CN2CCC3(CC2)COc2c3ccc3c2CN(C2CCC(=O)NC2=O)C3=O)c2ccccc21 (stereo not shown) | > 0.5 µM |
| O=C1CC[C@H](N2Cc3c(ccc4c3OCC43CCN(CC4CCCN(C(=O)c5ccccc5)C4)CC3)C2=O)C(=O)N1 (stereo partly shown) | > 0.5 µM |
| CC(F)(F)c1ccc(CN2CCC3(CC2)COc2c3ccc3c2CN(C2CCC(=O)NC2=O)C3=O)cc1 (stereo not shown) | > 0.5 µM |
| O=C1CC[C@H](N2Cc3c(ccc4c3OCC43CCN(Cc4ccn(-c5ccc(Cl)cc5)n4)CC3)C2=O)C(=O)N1 | 0.05 to 0.2 µM |
| Cn1cc2ccc(CN3CCC4(CC3)COc3c4ccc4c3CN(C3CCC(=O)NC3=O)C4=O)cc2n1 (stereo not shown) | < 0.05 µM |
| O=C1CC[C@H](N2Cc3c(ccc4c3OCC43CCN(Cc4cnn(S(=O)(=O)c5ccccc5Cl)c4)CC3)C2=O)C(=O)N1 | < 0.05 µM |
| CC(C)n1cc(-c2cccc(CN3CCC4(CC3)COc3c4ccc4c3CN(C3CCC(=O)NC3=O)C4=O)c2)cn1 (stereo not shown) | < 0.05 µM |
| O=C1CCC(N2Cc3c(ccc4c3OCC43CCN(Cc4cccc5occc45)CC3)C2=O)C(=O)N1 (stereo not shown) | < 0.05 µM |
| O=C1CC[C@H](N2Cc3c(ccc4c3OCC43CCN(Cc4cccc(NC(=O)C(F)(F)F)c4)CC3)C2=O)C(=O)N1 | < 0.05 µM |
| Cc1ccc(C(=O)Nc2cccc(CN3CCC4(CC3)COc3c4ccc4c3CN(C3CCC(=O)NC3=O)C4=O)c2)cc1 (stereo not shown) | < 0.05 µM |
| Cc1ccc(C(=O)Nc2cccc(CN3CCC4(CC3)OCc3c4ccc4c3CN(C3CCC(=O)NC3=O)C4=O)c2)cc1 (stereo not shown) | < 0.05 µM |
| CCn1ncc2ccc(CN3CCC4(CC3)COc3c4ccc4c3CN([C@H]3CCC(=O)NC3=O)C4=O)cc21 | 0.05 to 0.2 µM |
| CC(C)Oc1cc(F)ccc1CN1CCC2(CC1)COc1c2ccc2c1CN([C@H]1CCC(=O)NC1=O)C2=O | > 0.5 µM |
| O=C1CCC(N2Cc3c(ccc4c3OCC43CCN(Cc4cnn(C5CCCCC5)c4)CC3)C2=O)C(=O)N1 (stereo not shown) | > 0.5 µM |
